target: human recombinant mGluR5 (Homo sapiens, UniProt P41594); construct: expressed in transfected cells; host or cells: HEK 293 cell line, cultured with tetracycline, hygromycin and geneticin; tetracycline is withdrawn 3-7 days before the assay; experiment: positive modulation of mGluR5, calcium based FLIPR assay; format: cell-based; settings: EC50 of the modulation; HEK 293 cell line expressing human recombinant mGluR5; peak height of Ca fluorescence signal after glutamate at approx. 5% basal stimulation; read-out: EC50
Sequence (P41594 21-1212): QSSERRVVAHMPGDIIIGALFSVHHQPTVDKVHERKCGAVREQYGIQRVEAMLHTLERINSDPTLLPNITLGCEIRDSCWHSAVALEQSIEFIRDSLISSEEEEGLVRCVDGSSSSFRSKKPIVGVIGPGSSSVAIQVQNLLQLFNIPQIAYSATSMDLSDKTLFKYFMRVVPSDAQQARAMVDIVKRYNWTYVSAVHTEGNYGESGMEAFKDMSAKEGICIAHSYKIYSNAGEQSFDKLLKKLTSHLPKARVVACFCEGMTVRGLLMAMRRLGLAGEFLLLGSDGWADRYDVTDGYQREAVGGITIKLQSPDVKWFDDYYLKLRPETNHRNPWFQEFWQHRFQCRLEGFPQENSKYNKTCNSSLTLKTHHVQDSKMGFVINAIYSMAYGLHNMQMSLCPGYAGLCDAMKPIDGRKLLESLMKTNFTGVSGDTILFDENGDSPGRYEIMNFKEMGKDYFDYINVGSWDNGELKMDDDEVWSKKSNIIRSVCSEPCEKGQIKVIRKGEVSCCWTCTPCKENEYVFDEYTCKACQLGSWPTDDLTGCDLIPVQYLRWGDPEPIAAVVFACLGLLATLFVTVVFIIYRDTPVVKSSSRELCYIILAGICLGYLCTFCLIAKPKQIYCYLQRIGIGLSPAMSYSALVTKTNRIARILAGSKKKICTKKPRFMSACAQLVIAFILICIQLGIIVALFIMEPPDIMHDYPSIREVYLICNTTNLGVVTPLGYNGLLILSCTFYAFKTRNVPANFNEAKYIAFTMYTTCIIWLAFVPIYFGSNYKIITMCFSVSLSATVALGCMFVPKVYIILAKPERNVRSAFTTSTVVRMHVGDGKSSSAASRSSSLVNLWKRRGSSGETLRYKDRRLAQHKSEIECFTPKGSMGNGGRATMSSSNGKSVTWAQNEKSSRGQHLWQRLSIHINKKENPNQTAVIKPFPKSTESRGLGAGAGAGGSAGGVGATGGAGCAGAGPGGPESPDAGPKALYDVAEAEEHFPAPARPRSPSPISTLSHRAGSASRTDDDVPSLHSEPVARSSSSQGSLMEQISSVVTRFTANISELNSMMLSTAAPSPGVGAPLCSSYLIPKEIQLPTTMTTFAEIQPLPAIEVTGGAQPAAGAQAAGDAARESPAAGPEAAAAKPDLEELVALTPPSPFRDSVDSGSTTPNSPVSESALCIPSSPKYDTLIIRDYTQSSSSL
MEASURE NAME: pEC50
// pEC50: -log10(molar conc.)

Recorded results for 6 compounds are shown here.
{"columns": ["COMPOUND STRUCTURE", "ASSAY SYSTEM", "pEC50"],
 "data": [
  ["Cc1cc(-c2nc(-c3ccccc3)n(CC(=O)N3CCc4cn[nH]c4CC3)n2)ccc1F", "human recombinant mGluR5 (Homo sapiens, UniProt P41594)", 6.71],
  ["COc1ccc(-c2nc(-c3ccccc3)n(CC(=O)N3CCc4nc(C)oc4C3)n2)cc1", "human recombinant mGluR5 (Homo sapiens, UniProt P41594)", 6.49],
  ["COC(=O)c1ccc2c(c1)CCN(C(=O)Cn1nc(-c3ccc(F)c(C)c3)nc1-c1ccccc1)CC2", "human recombinant mGluR5 (Homo sapiens, UniProt P41594)", 7.27],
  ["Nc1nc2c(s1)CCN(C(=O)Cn1nc(-c3ccccc3)nc1-c1ccccc1)CC2", "human recombinant mGluR5 (Homo sapiens, UniProt P41594)", 5.84],
  ["Cc1nc2c(o1)CCN(C(=O)Cn1nc(-c3ccc(F)cc3)nc1-c1ccc(F)cc1)C2", "human recombinant mGluR5 (Homo sapiens, UniProt P41594)", 6.39],
  ["CCCc1nc(-c2ccc(OC(F)F)cc2)nn1CC(=O)N1CCc2nc(C)sc2CC1", "human recombinant mGluR5 (Homo sapiens, UniProt P41594)", 6.50]
]}

Q: For the compound O=C(Cn1nc(-c2ccc(F)cc2)nc1-c1ccc(F)cc1)N1CCC(c2ncccn2)CC1 , what pEC50 is on record?
Ans: 5.83

Q: Repeat with O=C(Cn1nc(-c2ccc(F)cc2)nc1-c1ccc(F)cc1)N1CCC(c2nnco2)CC1
Ans: 6.04

Q: Repeat with Cc1nc2c(s1)CCN(C(=O)Cn1nc(-c3ccc(F)c(C)c3)nc1CC(C)C)CC2
Ans: 6.65

Q: Repeat with Cc1nc2c(s1)CCN(C(=O)Cn1nc(-c3ccc(F)c(C)c3)nc1C1CCCC1)CC2
Ans: 7.20

Q: Repeat with COc1cccc(C2=CCN(C(=O)Cn3nc(-c4ccc(F)cc4)nc3-c3ccc(F)cc3)CC2)c1
Ans: 6.64

Q: Repeat with O=C(Cn1nc(-c2ccc(F)cc2)nc1-c1ccc(F)cc1)N1CCN(c2ncnc3ccccc23)CC1
Ans: 5.95

Q: Repeat with Nc1nnc(C2CCN(C(=O)Cn3nc(-c4ccc(F)cc4)nc3-c3ccc(F)cc3)CC2)o1
Ans: 6.00

Q: Repeat with C=CCNC(=O)Nc1nc2c(s1)CN(C(=O)Cn1nc(-c3ccc(F)cc3)nc1-c1ccc(F)cc1)CC2
Ans: 6.30

Q: Repeat with O=C(Cn1nc(-c2ccc(F)cc2)nc1-c1ccc(F)cc1)N1CCN(c2nccs2)CC1
Ans: 7.06

Q: Repeat with Cc1nnc(N2CCN(C(=O)Cn3nc(-c4ccc(OC(F)F)cc4)nc3-c3ccccc3)CC2)o1
Ans: 6.89

Q: Repeat with COc1ccc2c(c1)CCN(C(=O)Cn1nc(-c3ccc(F)cc3)nc1-c1ccc(F)cc1)CC2
Ans: 6.55

Q: Repeat with COc1cc(-c2nc(-c3ccc(F)cc3)n(CC(=O)N3CCc4nc(N)sc4CC3)n2)ccc1F
Ans: 7.22

Q: Repeat with CC(=O)Nc1nc2c(s1)CCN(C(=O)Cn1nc(-c3ccc(F)c(C)c3)nc1-c1ccccc1)CC2
Ans: 6.63

Reference source for all entries: patent US8642774B2
